Consider the following sequences; for each one, report its self-aminoacylation.
# Tested on: biotinyl-Ile-oxazolone
# test.details: self-aminoacylation, catalytic enhancement (BIO) (fold over background); higher = more active; k-Seq, kA / k0A0; sequences stand for … in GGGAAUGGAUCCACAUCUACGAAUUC…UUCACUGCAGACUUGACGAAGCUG
This sample holds only a part of the variants without activity.

INPUT: Fill in self-aminoacylation for record CUCCUUCAAACCAUCGGUCUG [Fam1A.1 aminoacylation ribozyme variant]
OUTPUT: 0.815

INPUT: Fill in self-aminoacylation for record AUUCACCUAGGCCAUCGGGUA [Fam2.2 aminoacylation ribozyme variant]
OUTPUT: 2.42

INPUT: Fill in self-aminoacylation for record AUUCAACCAGGUCAUCGGGUG [Fam2.2 aminoacylation ribozyme variant]
OUTPUT: 4.64

INPUT: Fill in self-aminoacylation for record CUACUUUAAACAAUCGGUCGG [Fam1A.1 aminoacylation ribozyme variant]
OUTPUT: 0.945
